Value source: patent US20100331310A1

target: human Nav1.8 (Homo sapiens); experiment: Membrane potential increase-inhibitory action on TTX-resistant Na channels in cells expressing human Nav1.8 gene (deltamethrin stimulation)
Sequence (Q9Y5Y9 whole entry): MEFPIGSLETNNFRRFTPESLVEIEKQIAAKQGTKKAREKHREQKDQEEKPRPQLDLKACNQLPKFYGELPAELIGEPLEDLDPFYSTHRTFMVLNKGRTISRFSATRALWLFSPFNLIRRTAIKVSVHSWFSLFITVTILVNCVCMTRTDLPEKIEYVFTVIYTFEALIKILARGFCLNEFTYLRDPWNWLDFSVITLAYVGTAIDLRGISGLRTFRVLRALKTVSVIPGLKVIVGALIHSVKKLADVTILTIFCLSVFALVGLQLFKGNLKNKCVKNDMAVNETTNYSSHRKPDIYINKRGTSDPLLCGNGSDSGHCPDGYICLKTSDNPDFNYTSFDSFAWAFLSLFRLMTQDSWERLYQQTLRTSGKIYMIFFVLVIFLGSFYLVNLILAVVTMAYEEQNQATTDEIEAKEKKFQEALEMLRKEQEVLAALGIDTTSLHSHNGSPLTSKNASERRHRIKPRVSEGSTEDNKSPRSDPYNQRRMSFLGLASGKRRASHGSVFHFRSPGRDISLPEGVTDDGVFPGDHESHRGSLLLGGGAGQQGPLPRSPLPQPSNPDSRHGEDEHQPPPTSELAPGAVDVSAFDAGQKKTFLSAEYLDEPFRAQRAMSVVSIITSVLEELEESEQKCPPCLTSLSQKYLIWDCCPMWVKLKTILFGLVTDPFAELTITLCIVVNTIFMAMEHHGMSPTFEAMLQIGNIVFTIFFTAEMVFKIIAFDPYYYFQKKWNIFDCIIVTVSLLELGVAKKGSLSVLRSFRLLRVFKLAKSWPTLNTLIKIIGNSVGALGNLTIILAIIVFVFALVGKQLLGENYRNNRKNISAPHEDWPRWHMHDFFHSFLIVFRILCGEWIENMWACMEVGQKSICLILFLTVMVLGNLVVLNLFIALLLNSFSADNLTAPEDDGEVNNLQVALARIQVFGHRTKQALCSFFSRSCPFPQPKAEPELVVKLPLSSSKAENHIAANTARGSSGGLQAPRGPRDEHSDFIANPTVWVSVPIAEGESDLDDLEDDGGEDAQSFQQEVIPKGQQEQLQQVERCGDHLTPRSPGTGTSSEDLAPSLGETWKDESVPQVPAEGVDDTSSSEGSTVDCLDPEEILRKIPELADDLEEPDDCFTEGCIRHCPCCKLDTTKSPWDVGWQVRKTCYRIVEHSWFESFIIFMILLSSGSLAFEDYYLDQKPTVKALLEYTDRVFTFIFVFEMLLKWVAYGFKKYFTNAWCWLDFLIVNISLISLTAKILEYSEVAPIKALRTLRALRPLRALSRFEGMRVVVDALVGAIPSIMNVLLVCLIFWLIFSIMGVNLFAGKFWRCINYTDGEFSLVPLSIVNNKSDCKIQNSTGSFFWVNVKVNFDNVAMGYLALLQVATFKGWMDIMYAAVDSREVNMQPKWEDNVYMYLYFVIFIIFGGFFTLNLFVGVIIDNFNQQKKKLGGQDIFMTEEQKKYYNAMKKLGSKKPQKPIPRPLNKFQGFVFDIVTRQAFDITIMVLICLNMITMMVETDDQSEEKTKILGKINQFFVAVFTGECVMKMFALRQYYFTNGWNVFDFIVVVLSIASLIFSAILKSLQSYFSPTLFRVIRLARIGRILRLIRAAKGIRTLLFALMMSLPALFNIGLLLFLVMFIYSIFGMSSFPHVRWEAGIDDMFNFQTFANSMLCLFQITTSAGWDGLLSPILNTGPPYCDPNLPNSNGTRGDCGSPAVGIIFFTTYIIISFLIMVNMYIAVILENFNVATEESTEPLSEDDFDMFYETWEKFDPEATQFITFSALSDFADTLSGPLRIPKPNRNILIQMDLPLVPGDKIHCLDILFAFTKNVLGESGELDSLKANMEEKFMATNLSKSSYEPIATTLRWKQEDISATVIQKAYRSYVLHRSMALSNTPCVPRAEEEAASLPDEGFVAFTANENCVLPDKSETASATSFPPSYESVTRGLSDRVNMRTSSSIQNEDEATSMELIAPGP
pIC50: −log10 of the molar value.
Entries and their measured pIC50 follow.
ASSAY_METRIC: pIC50

{"MOLECULE": "Cc1nc(=O)n(C[C@@H](F)CN2C3CCC2CC(OCc2ccc(F)cc2)C3)c(=O)n1C (stereo partly drawn) [Example 12]", "TESTED_SYSTEM": "human Nav1.8 (Homo sapiens)", "VALUE_REPORTED": 5.06}
{"MOLECULE": "Cc1nn(C[C@H](F)CN2C3CCC2CC(OCc2cccc(F)c2)C3)c(=O)n1C (stereo partly drawn) [Example 1]", "TESTED_SYSTEM": "human Nav1.8 (Homo sapiens)", "VALUE_REPORTED": 5.49}
{"MOLECULE": "Cc1cccc(COC2CC3CCC(C2)N3CC(F)Cn2nc(N(C)C)n(C)c2=O)c1 (stereo not drawn) [Example 25]", "TESTED_SYSTEM": "human Nav1.8 (Homo sapiens)", "VALUE_REPORTED": 6.15}
{"MOLECULE": "CN1CCn2c1nn(CC(F)CN1[C@@H]3CC[C@H]1C[C@@H](OCc1ccc(F)cc1)C3)c2=O (stereo partly drawn) [Example 112]", "TESTED_SYSTEM": "human Nav1.8 (Homo sapiens)", "VALUE_REPORTED": 4.92}
{"MOLECULE": "O=c1n(CC(O)CN2[C@@H]3CC[C@H]2C[C@@H](OCc2ccccc2F)C3)nnn1-c1ccccc1 (stereo partly drawn) [Example 190]", "TESTED_SYSTEM": "human Nav1.8 (Homo sapiens)", "VALUE_REPORTED": 7.52}
{"MOLECULE": "Cc1nc2c(c(=O)n1CCN1[C@@H]3CC[C@H]1C[C@@H](OCc1ccccc1F)C3)CCCC2 [Example 180]", "TESTED_SYSTEM": "human Nav1.8 (Homo sapiens)", "VALUE_REPORTED": 5.32}
{"MOLECULE": "Cc1cccc(F)c1CO[C@H]1C[C@H]2CC[C@@H](C1)N2CCCn1c(=O)nc2n(c1=O)CCCCC2 [Example 136]", "TESTED_SYSTEM": "human Nav1.8 (Homo sapiens)", "VALUE_REPORTED": 5.31}
{"MOLECULE": "CCn1c(C)nc(=O)n(CCCN2[C@@H]3CC[C@H]2C[C@@H](OCc2c(F)cccc2-c2ccccc2)C3)c1=O [Example 91]", "TESTED_SYSTEM": "human Nav1.8 (Homo sapiens)", "VALUE_REPORTED": 6.77}
{"MOLECULE": "O=C(CN1[C@@H]2CC[C@H]1C[C@@H](OCc1ccccc1F)C2)Cn1nc2ccccn2c1=O [Example 158]", "TESTED_SYSTEM": "human Nav1.8 (Homo sapiens)", "VALUE_REPORTED": 6.03}
{"MOLECULE": "Cn1c(-c2ccccc2)nn(CCCN2[C@@H]3CC[C@H]2C[C@@H](OCc2ccccc2F)C3)c1=O [Example 57]", "TESTED_SYSTEM": "human Nav1.8 (Homo sapiens)", "VALUE_REPORTED": 7.10}
{"MOLECULE": "Cc1nn(C[C@H](F)CN2C3CCC2CC(OCc2ccccc2CF)C3)c(=O)n1C (stereo partly drawn) [Example 6]", "TESTED_SYSTEM": "human Nav1.8 (Homo sapiens)", "VALUE_REPORTED": 5.28}
{"MOLECULE": "CCc1ccccc1COC1CC2CCC(C1)N2C[C@H](O)Cn1nc(C)n(CC)c1=O (stereo partly drawn) [Example 31]", "TESTED_SYSTEM": "human Nav1.8 (Homo sapiens)", "VALUE_REPORTED": 6.00}
{"MOLECULE": "Cc1nc(=O)n(C[C@@H](F)CN2[C@@H]3CC[C@H]2C[C@@H](OCc2cccc(F)c2)C3)c(=O)n1C [Example 13]", "TESTED_SYSTEM": "human Nav1.8 (Homo sapiens)", "VALUE_REPORTED": 5.00}
{"MOLECULE": "Cn1c(=O)c2c(ncn2CCCN2[C@@H]3CC[C@H]2C[C@@H](OCc2ccccc2F)C3)n(C)c1=O [Example 182]", "TESTED_SYSTEM": "human Nav1.8 (Homo sapiens)", "VALUE_REPORTED": 5.17}
{"MOLECULE": "Cc1nn(C[C@H](F)CN2C3CCC2CC(OCc2cccs2)C3)c(=O)n1C (stereo partly drawn) [Example 7]", "TESTED_SYSTEM": "human Nav1.8 (Homo sapiens)", "VALUE_REPORTED": 5.37}
{"MOLECULE": "Cc1nn(CC(O)CN2[C@@H]3CC[C@H]2C[C@@H](OCc2ccccc2F)C3)c(=O)n1-c1nccs1 (stereo partly drawn) [Example 48]", "TESTED_SYSTEM": "human Nav1.8 (Homo sapiens)", "VALUE_REPORTED": 6.70}
{"MOLECULE": "Cc1nn(C[C@@H](F)CN2[C@@H]3CC[C@H]2C[C@@H](OCc2ccc(F)cc2)C3)c(=O)n1-c1ccn(C)n1 [Example 24]", "TESTED_SYSTEM": "human Nav1.8 (Homo sapiens)", "VALUE_REPORTED": 5.43}
{"MOLECULE": "Cc1nn(C[C@H](F)CN2[C@@H]3CC[C@H]2C[C@@H](OCc2ccccc2F)C3)c(=O)n1C [Example 4]", "TESTED_SYSTEM": "human Nav1.8 (Homo sapiens)", "VALUE_REPORTED": 5.30}
{"MOLECULE": "Cc1c(C)n(C)c(=O)n(CCCN2[C@@H]3CC[C@H]2C[C@@H](OCc2ccccc2F)C3)c1=O [Example 189]", "TESTED_SYSTEM": "human Nav1.8 (Homo sapiens)", "VALUE_REPORTED": 5.42}
{"MOLECULE": "O=c1n(CCCN2[C@@H]3CC[C@H]2C[C@@H](CCc2ccccc2F)C3)nc2ccccn12 [Example 149]", "TESTED_SYSTEM": "human Nav1.8 (Homo sapiens)", "VALUE_REPORTED": 6.55}
{"MOLECULE": "O=c1nc2n(c(=O)n1CCCN1[C@@H]3CC[C@H]1C[C@@H](CCc1ccccc1F)C3)CCCC2 [Example 129]", "TESTED_SYSTEM": "human Nav1.8 (Homo sapiens)", "VALUE_REPORTED": 5.01}
{"MOLECULE": "Cc1nn(C[C@H](F)CN2[C@@H]3CC[C@H]2C[C@@H](OCc2cccc(F)c2)C3)c(=O)n1-c1ccn(C)n1 [Example 23]", "TESTED_SYSTEM": "human Nav1.8 (Homo sapiens)", "VALUE_REPORTED": 5.28}
{"MOLECULE": "Cc1nn2c(=O)n(C[C@H](F)CN3[C@@H]4CC[C@H]3C[C@@H](OCc3cccc(F)c3)C4)c(=O)nc2n1C [Example 101]", "TESTED_SYSTEM": "human Nav1.8 (Homo sapiens)", "VALUE_REPORTED": 5.57}
{"MOLECULE": "Cc1nn2c(=O)n(C[C@H](F)CN3[C@@H]4CC[C@H]3C[C@@H](OCc3ccc(F)c(F)c3)C4)c(=O)nc2n1C [Example 102]", "TESTED_SYSTEM": "human Nav1.8 (Homo sapiens)", "VALUE_REPORTED": 5.55}
{"MOLECULE": "COC(CN1[C@@H]2CC[C@H]1C[C@@H](OCc1ccccc1F)C2)Cn1nc2ccccn2c1=O (stereo partly drawn) [Example 157]", "TESTED_SYSTEM": "human Nav1.8 (Homo sapiens)", "VALUE_REPORTED": 5.92}
{"MOLECULE": "O=c1nc2n(c(=O)n1C[C@H](F)CN1[C@@H]3CC[C@H]1C[C@@H](OCc1ccc(F)cc1)C3)CCC2 [Example 128]", "TESTED_SYSTEM": "human Nav1.8 (Homo sapiens)", "VALUE_REPORTED": 5.43}
{"MOLECULE": "Cc1cccc(COC2CC3CCC(C2)N3CC(F)Cn2c(=O)nc(C)n(C)c2=O)c1 (stereo not drawn) [Example 21]", "TESTED_SYSTEM": "human Nav1.8 (Homo sapiens)", "VALUE_REPORTED": 5.40}
{"MOLECULE": "O=c1n(-c2ccccc2)cnn1CCCN1[C@@H]2CC[C@H]1C[C@@H](OCc1ccccc1F)C2 [Example 58]", "TESTED_SYSTEM": "human Nav1.8 (Homo sapiens)", "VALUE_REPORTED": 6.89}
{"MOLECULE": "CCn1cnn(C[C@@H](O)CN2[C@@H]3CC[C@H]2C[C@@H](OCc2c(C)cccc2F)C3)c1=O [Example 35]", "TESTED_SYSTEM": "human Nav1.8 (Homo sapiens)", "VALUE_REPORTED": 4.85}
{"MOLECULE": "Cc1cc(-n2c(C)nn(CC(O)CN3[C@@H]4CC[C@H]3C[C@@H](OCc3ccccc3F)C4)c2=O)on1 (stereo partly drawn) [Example 47]", "TESTED_SYSTEM": "human Nav1.8 (Homo sapiens)", "VALUE_REPORTED": 5.89}
